Test system: U2OS
Experiment: cell viability relative to DMSO; higher = less toxic
Settings: 72 h; 100 nM
measurementLabel: cell viability (%)
Answers are plain numbers, in %.

CCc1nc2c(C)nc(C)cc2n1-c1ccc(CCNC(=O)NS(=O)(=O)c2ccc(C)cc2)cc1 [grapiprant] = 97.7
CCN(CCCOc1ccc2c(Nc3cc(CC(=O)Nc4cccc(F)c4)[nH]n3)ncnc2c1)CCOP(=O)(O)O [barasertib] = 98
C[C@]12C/C(=C/O)C(=O)C[C@@H]1CC[C@@H]1[C@@H]2CC[C@@]2(C)[C@H]1CC[C@]2(C)O [Oxymetholone] = 99.6
CCC1NC(=O)c2cc(S(N)(=O)=O)c(Cl)cc2N1 (stereo not drawn) [quinethazone] = 93.3
NCC1CC(=O)N(Cc2ccccc2)C1 (stereo not drawn) [nebracetam] = 95.7

Provide the reported cell viability of each entry below, same order.
1. CC(C)c1cccc2c(-c3ccccc3)cc(-c3ccc(-c4ccc(C(=O)O)cc4)[nH]3)nc12
2. Cc1csc(S(=O)(=O)N(CC(C)C)c2cc3c(cc2OCc2ccc(C(=O)O)cc2)CCC3)n1 [ONO-8130]
3. O=C(Nc1ccc(Br)cc1)c1cc(Br)cc(Br)c1O [tribomsalan]

Output:
[98.9, 97.5, 96]

----------
Consider the following compounds; for each one, report its cell viability.
Tested on: Vero E6
Assay: cell viability relative to DMSO; higher = less toxic
Settings: 72 h; 1000 nM
Numbers only, in %.

Examples from the recorded data:
CC(C)(Oc1ccc(C2CC2(Cl)Cl)cc1)C(=O)O (stereo not drawn) [ciprofibrate] = 97.2
CO[C@H]1C[C@@H]2CC[C@@H](C)[C@@](O)(O2)C(=O)C(=O)N2CCCC[C@H]2C(=O)O[C@H]([C@H](C)C[C@@H]2CC[C@H](n3cnnn3)[C@H](OC)C2)CC(=O)[C@H](C)/C=C(\C)[C@@H](O)[C@@H](OC)C(=O)[C@H](C)C[C@H](C)/C=C/C=C/C=C/1C = 61

Then this compound:
Task: Please look at this compound and report its cell viability: CCN(CCCOc1ccc2c(Nc3cc(CC(=O)Nc4cccc(F)c4)[nH]n3)ncnc2c1)CCOP(=O)(O)O
Output: 93.7

----------
Tested on: Calu-3
Experiment: cell viability relative to DMSO; higher = less toxic
Conditions: 72 h; 1 nM
measurementLabel: cell viability (%)
Numbers only, in %.

Answered examples (5):
O=C1O[C@H]([C@@H](O)CO)C([O-])=C1O.[Na+] [sodium-ascorbate] = 100
Fc1ccc([C@@H]2CCNC[C@H]2COc2ccc3c(c2)OCO3)cc1 [paroxetine] = 95.9
Cc1csc(S(=O)(=O)N(CC(C)C)c2cc3c(cc2OCc2ccc(C(=O)O)cc2)CCC3)n1 [ONO-8130] = 98.5
CC(C)(C)c1[nH]cnc1/C=c1\[nH]c(=O)/c(=C/c2ccccc2)[nH]c1=O [plinabulin] = 102
NS(=O)(=O)c1cc(C(=O)O)cc(N2CCCC2)c1Oc1ccccc1 [piretanide] = 90

Items follow; give cell viability for each.
1. Clc1ccc(C(Cn2ccnc2)OCc2csc3c(Cl)cccc23)c(Cl)c1 (stereo not given) [sertaconazole]
2. Cc1ccc(CCCO)c(NCc2ccc3nc(NCCCN4CCOCC4)n(Cc4nc(C)ccc4O)c3c2)c1
3. O=C(Oc1ccc([N+](=O)[O-])cc1)N1CCC(C(O)(c2ccc3c(c2)OCO3)c2ccc3c(c2)OCO3)CC1 [JZL-184]
4. CC(C)(O)C(=O)Nc1ccc([N+](=O)[O-])c(C(F)(F)F)c1 [2-hydroxyflutamide]
5. CCOC(=O)CSCCC1NC(C(=O)O)CS1 (stereo not given) [letosteine]
6. CCOC(=O)c1ccccc1OC(N)=O [ethyl-2-(carbamoyloxy)benzoate]
7. CN[C@H]1C(=O)N[C@@H]2Cc3ccc(cc3)Oc3cc4cc(c3O[C@@H]3O[C@H](C(=O)O)[C@@H](O)[C@H](O)[C@H]3NC(=O)CCCCCCCCC(C)C)Oc3ccc(cc3Cl)[C@@H](O)[C@@H]3NC(=O)[C@H](NC(=O)[C@@H]4NC(=O)[C@@H](NC2=O)c2cc(cc(O)c2Cl)Oc2cc1ccc2O)c1ccc(O)c(c1)-c1c(O[C@H]2O[C@H](CO)[C@@H](O)[C@H](O)[C@@H]2O)cc(O)cc1[C@@H](C(=O)NCCCN(C)C)NC3=O [dalbavancin]
8. CNC(=O)c1c(I)c(C(=O)NCC(=O)Nc2c(I)c(C(=O)O)c(I)c(C(=O)NCCO)c2I)c(I)c(N(C)C(C)=O)c1I [ioxaglic-acid]

Output:
1. 106
2. 115
3. 105
4. 100
5. 97.6
6. 93.2
7. 95.2
8. 109

Give cell viability for each listed item.
1. C[C@]1(Cn2ccnn2)[C@H](C(=O)O)N2C(=O)C[C@H]2S1(=O)=O [tazobactam]
2. Cc1c(N)cccc1Cn1ccc(OCCc2cccs2)cc1=O

Output:
93.2
95.9

----------
I'd appreciate it if you could supply cell viability values for the items below.
Test system: Vero E6
Assay: cell viability relative to DMSO; higher = less toxic
Details: 72 h; 1000 nM
One number for each entry, in %.

Reference set, count: 2
NCCc1c[nH]c2ccc(C(N)=O)cc12 = 97.4
CNC(=O)c1c(-c2ccc(F)cc2)oc2cc(N(CCO)S(C)(=O)=O)c(C3CC3)cc12 = 93.6

Look up cell viability for the entries below, preserving their order.
1. Cc1cccc(Oc2cnc(=O)[nH]c2)c1
2. Cc1cc(Nc2ccc(NC(=O)c3ccc(Nc4ccnc5ccccc45)cc3)cc2)nc(N)n1
3. NCC1CC(=O)N(Cc2ccccc2)C1 (stereo not given)
4. COc1ccc(C2(CNC(=O)c3ccc(NC(=O)c4ccco4)cc3)CCOCC2)cc1
5. NC(=O)N1CCC(CC(=O)N2CCC([C@H]3c4ncc(Br)cc4CCc4cc(Cl)cc(Br)c43)CC2)CC1
6. CC#CCOC(=O)c1c(C)nc2sc3c(c2c1N)CCC(O)C3 (stereo not given)
7. NC(=O)c1cn(Cc2c(F)cccc2F)nn1 [rufinamide]
8. NC(=O)NC1NC(=O)NC1=O (stereo not given)

Output:
95.7
96.6
91.4
102
93.3
93.2
97.9
102

----------
Test system: Calu-3
Assay: cell viability relative to DMSO; higher = less toxic
Conditions: 72 h; 1 nM
measurementLabel: cell viability (%)
One number for each entry, in %.

Would you please look over these solved cases?
CCc1nc(-c2cccc(C)c2)c(-c2ccnc(NC(=O)c3ccccc3)c2)s1 = 90.5
CN(C)C(=O)Oc1cc(OC(=O)N(C)C)cc(C(O)CNC(C)(C)C)c1 (configuration not stated) = 95.8
CC(C)(C)C(=O)Oc1ccc(S(=O)(=O)Nc2ccccc2C(=O)NCC(=O)O)cc1 = 97.2

For each entry beneath this line, provide reported cell viability.
1. Nc1cc(C(F)(F)F)c(-c2cc(N3CCOCC3)nc(N3CCOCC3)n2)cn1
2. O=C(/C=C/c1cccc(S(=O)(=O)Nc2ccccc2)c1)NO
3. CN(Cc1cnc2nc(N)nc(N)c2n1)c1ccc(C(=O)N[C@@H](CCC(=O)O)C(=O)O)cc1 [methotrexate]
4. Cc1cccc(Oc2cnc(=O)[nH]c2)c1

Output:
1: 116; 2: 90.7; 3: 104; 4: 108

----------
Test system: Calu-3
Test: cell viability relative to DMSO; higher = less toxic
Conditions: 72 h; 100 nM
I'd appreciate it if you could supply cell viability values for the items below.
Answers are plain numbers, in %.

Field: example entries. Status: answers known.
Cc1nc(=O)c2cc(CN(C)c3ccc(C(=O)N[C@@H](CCC(=O)O)C(=O)O)s3)ccc2[nH]1 = 87.4
COc1ccc(OC)c2c(=S)c3ccccc3[nH]c12 = 99.4
O=C(OCC(O)CO)c1ccccc1Nc1ccnc2cc(Cl)ccc12 (centres undefined) = 87.7
CC1(C)Cc2c(-c3ccccc3)c(-c3ccc(Cl)cc3)c(CC(=O)O)n2C1 = 100
Cc1cc(C)nc(NS(=O)(=O)c2ccc(NC(=S)NC(=O)COc3ccc(Br)cc3Cl)cc2)n1 = 103

For every listed record, write down its cell viability.
1. Cc1cc(=O)oc2c(C=O)c(O)ccc12
2. CN1CC[C@@H](NC(=O)Nc2ccc(C#N)cc2)C[C@@H]1c1nc2ccccc2[nH]1
3. O=c1cc(N2CCNCC2)oc2c(-c3ccccc3)cccc12
4. CC(C)(C)NCC(O)COc1cccc2c1CCC(=O)N2 (centres undefined)

Output:
1. 118
2. 96.9
3. 108
4. 104

// batch mode: one cell viability value per listed entry
1. O=C(O)c1cn(-c2ccc(F)cc2)c2cc(N3CCNCC3)c(F)cc2c1=O
2. CCc1nc2c(C)nc(C)cc2n1-c1ccc(CCNC(=O)NS(=O)(=O)c2ccc(C)cc2)cc1
3. COc1cc(OC)cc(-c2ccc3c(-c4ccc(F)cc4)n[nH]c3n2)c1
4. CC(C)=CCC[C@](C)(O[C@@H]1O[C@H](CO)[C@@H](O)[C@H](O)[C@H]1O)[C@H]1CC[C@]2(C)[C@@H]1[C@H](O)C[C@@H]1[C@@]3(C)CC[C@H](O[C@@H]4O[C@H](CO)[C@@H](O)[C@H](O)[C@H]4O[C@@H]4O[C@H](CO)[C@@H](O)[C@H](O)[C@H]4O)C(C)(C)[C@@H]3CC[C@]12C [ginsenoside-RD]
5. CC(=O)O[C@@]12CO[C@@H]1C[C@H](O)[C@@]1(C)C(=O)[C@H](O)C3=C(C)[C@@H](O)C[C@@](O)([C@@H](OC(=O)c4ccccc4)[C@H]21)C3(C)C

Output:
1. 102
2. 103
3. 104
4. 101
5. 94.9

Please go through the list and note cell viability for each compound.
1. O=C1Nc2ccc(I)cc2C1=Cc1cc(Br)c(O)c(Br)c1
2. CO/N=C(\C(=O)N[C@@H]1C(=O)N2C(C(=O)[O-])=C(C[N+]3(C)CCCC3)CS[C@H]12)c1csc(N)n1 [cefepime]
3. C[C@H]1O[C@@H](Oc2c(-c3cc(O)c(O)c(O)c3)oc3cc(O)cc(O)c3c2=O)[C@@H](O)[C@@H](O)[C@@H]1O
4. O=C1Cc2c([nH]c3ccc(Br)cc23)-c2ccccc2N1
5. COc1cc(C[C@@H](CO)[C@H](CO)Cc2ccc(O)c(OC)c2)ccc1O [secoisolariciresinol-(-)]

Output:
1: 104; 2: 113; 3: 96.7; 4: 98.9; 5: 107

I'm hoping you can list cell viability for every compound here, please.
1. CCCN(CCC)C1Cc2cc(OC)c(OC)cc2C1
2. CC(C)c1cccc2c(-c3ccccc3)cc(-c3ccc(-c4ccc(C(=O)O)cc4)[nH]3)nc12
3. CN[C@H]1C(=O)N[C@@H]2Cc3ccc(cc3)Oc3cc4cc(c3O[C@@H]3O[C@H](C(=O)O)[C@@H](O)[C@H](O)[C@H]3NC(=O)CCCCCCCCC(C)C)Oc3ccc(cc3Cl)[C@@H](O)[C@@H]3NC(=O)[C@H](NC(=O)[C@@H]4NC(=O)[C@@H](NC2=O)c2cc(cc(O)c2Cl)Oc2cc1ccc2O)c1ccc(O)c(c1)-c1c(O[C@H]2O[C@H](CO)[C@@H](O)[C@H](O)[C@@H]2O)cc(O)cc1[C@@H](C(=O)NCCCN(C)C)NC3=O

Output:
92.3
99.2
95.2
